protein stability index for assorted variants
B1: CLPTM1 (parent)
chain: MNLHVYISEHEHFTDFNATSALFW

# Variants of: B1
# Assay remarks: protein stability index of a GFP-peptide fusion (GPS, HEK-293T) (PSI 1-6); higher = more stable;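 further: lentivirally expressed fusions sorted by FACS into six bins by GFP to DsRed ratio, PSI derived from sequencing read proportions per bin multiplied by bin number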
# Assay conditions: c terminus: a fixed tail appended
Experimental readout: protein stability index

alteration=T14C result_number=3.04
alteration=S8R result_number=3.37
alteration=Y6E result_number=2.93
alteration=L3W result_number=1.98
alteration=S8D result_number=3.18
alteration=N2D result_number=1.53
alteration=Y6L result_number=3.45
alteration=D15M result_number=3
alteration=V5W result_number=4.32
alteration=L22Y result_number=2.2
alteration=T19Y result_number=2.08
alteration=S8T result_number=2.08
alteration=W24E result_number=4.09
alteration=W24I result_number=1.93
alteration=F13W result_number=4.9
alteration=H12L result_number=1.41
alteration=N2G result_number=2.73
alteration=W24H result_number=1.75
alteration=L22H result_number=2.6
alteration=H10E result_number=2.77
alteration=A21V result_number=2.4
alteration=H4F result_number=1.89
alteration=W24K result_number=1.88
alteration=F13C result_number=2.51
alteration=I7C result_number=2
alteration=F16T result_number=1.87
alteration=L3V result_number=1.14
alteration=D15Y result_number=2.52
alteration=D15K result_number=2.71
alteration=H4R result_number=5.47
alteration=N2M result_number=2.77
alteration=F16I result_number=1.71
alteration=M1Q result_number=2.58
alteration=T19H result_number=2.99
alteration=A18Q result_number=5.84
alteration=V5K result_number=2.01
alteration=N2V result_number=3.88
alteration=S20E result_number=2.37
alteration=F13H result_number=2.67
alteration=F16W result_number=2.71
alteration=I7F result_number=2.58
alteration=A18L result_number=2.01
alteration=A21C result_number=3.19
alteration=T14A result_number=3.39
alteration=A18G result_number=3.77
alteration=M1I result_number=3.18
alteration=F23R result_number=2.46
alteration=Y6F result_number=2.84
alteration=N2Y result_number=2.55
alteration=V5A result_number=2.42
alteration=E9A result_number=2.82
alteration=L22I result_number=1.59
alteration=M1V result_number=3.6
alteration=S20T result_number=4.14
alteration=V5T result_number=1.76
alteration=F16G result_number=2.76
alteration=H10D result_number=2.41
alteration=F23P result_number=2.49
alteration=F16S result_number=2.19
alteration=I7G result_number=2.92
alteration=A21N result_number=2.35
alteration=Y6Q result_number=2.4
alteration=A18M result_number=4.1
alteration=L3G result_number=2.78
alteration=H12T result_number=2.1
alteration=S8H result_number=3.35
alteration=N17R result_number=2.01
alteration=W24N result_number=2.98
alteration=N2Q result_number=1
alteration=S20V result_number=2.29
alteration=L3D result_number=2.44
alteration=F16K result_number=2.96
alteration=M1F result_number=2.29
alteration=A18W result_number=2.76
alteration=H10T result_number=3.76
alteration=F23Q result_number=2.56
alteration=L3N result_number=1.2
alteration=F13T result_number=1.95
alteration=E11F result_number=3.56
alteration=V5D result_number=2.1
alteration=L22C result_number=4.78
alteration=V5Q result_number=1.48
alteration=W24F result_number=4.25
alteration=A18F result_number=4.2
alteration=T19N result_number=3.66
